Reference for the values: patent US8247211B2

# Test system: Staphylococcus sp.
# protocolDescription: In vitro antibacterial evaluation: minimum inhibitory concentration (MIC), broth dilution method
# Format: cell-based
# conditionParameters: strain GC 4544; broth dilution, 18 hours at 35° C.
readoutType: MIC Staphylococcus aureus (GC 4544) (µg/mL)

INSERT INTO measurements (compound, datavalue) VALUES
  ('CC(c1ccccc1)C1NC(=O)CNC(=O)C(CO)NC(=O)C(C(O)C2CNC(=N)N2C2OC(CO)C(O)C(O)C2O)NC(=O)C(C(O)C2CNC(=N)N2)NC(=O)C(Cc2ccc(OC3OC(CO)C(OC4OC5COC(c6ccc(C(=O)c7ccccc7)cc6)OC5C(O)C4O)C(O)C3O)cc2)NC1=O (stereo not drawn)', 2),
  ('CC(c1ccccc1)C1NC(=O)CNC(=O)C(CO)NC(=O)C(C(O)C2CNC(=N)N2C2OC(CO)C(O)C(O)C2O)NC(=O)C(C(O)C2CNC(=N)N2)NC(=O)C(Cc2ccc(OC3OC(CO)C(OC4OC5COC(C6CC=CCC6)OC5C(O)C4O)C(O)C3O)cc2)NC1=O (stereo not drawn)', 1),
  ('CC(c1ccccc1)C1NC(=O)CNC(=O)C(CO)NC(=O)C(C(O)C2CNC(=N)N2C2OC(CO)C(O)C(O)C2O)NC(=O)C(C(O)C2CNC(=N)N2)NC(=O)C(Cc2ccc(OC3OC(CO)C(OC4OC5COC(c6cccc(Cl)c6)OC5C(O)C4O)C(O)C3O)cc2)NC1=O (stereo not drawn)', 2);

* * *

Reported MIC Escherichia coli (GC 4559) values for a set of compounds
# Test system: Escherichia coli
# protocolDescription: In vitro antibacterial evaluation: minimum inhibitory concentration (MIC), broth dilution method
# Assay type: cell-based
# conditionParameters: broth dilution, 18 hours at 35° C.
readoutType: MIC Escherichia coli (GC 4559)

INSERT INTO assay_data (compound, readouttype, datavalue) VALUES
  ('CC(c1ccccc1)C1NC(=O)CNC(=O)C(CO)NC(=O)C(C(O)C2CNC(=N)N2C2OC(CO)C(O)C(O)C2O)NC(=O)C(C(O)C2CNC(=N)N2)NC(=O)C(Cc2ccc3oc(SCc4ccc(-c5ccccc5)cc4)nc3c2)NC1=O (stereo not drawn) [Example 47]', 'MIC Escherichia coli (GC 4559)', '>64 µg/mL'),
  ('CC(=O)Nc1cc(CC2NC(=O)C(C(C)c3ccccc3)NC(=O)CNC(=O)C(CO)NC(=O)C(C(O)C3CNC(=N)N3C3OC(CO)C(O)C(O)C3O)NC(=O)C(C(O)C3CNC(=N)N3)NC2=O)ccc1O (stereo not drawn) [Example 13]', 'MIC Escherichia coli (GC 4559)', '>64 µg/mL'),
  ('CC(c1ccccc1)C1NC(=O)CNC(=O)C(CO)NC(=O)C(C(O)C2CNC(=N)N2C2OC(CO)C(O)C(O)C2O)NC(=O)C(C(O)C2CNC(=N)N2)NC(=O)C(Cc2ccc(O)c(NC(=S)Nc3cc(C(F)(F)F)cc(C(F)(F)F)c3)c2)NC1=O (stereo not drawn) [Example 24]', 'MIC Escherichia coli (GC 4559)', '>64 µg/mL');

* * *

# Tested on: Enterococcus sp.
# protocolDescription: In vitro antibacterial evaluation: minimum inhibitory concentration (MIC), broth dilution method
# Type: cell-based
# conditionParameters: Enterococcus faecalis (ATCC 29212); broth dilution, 18 hours at 35° C.
Numbered stars: 1 amine (or outer) side, 2 acyl side, 3 side chain; on linkers, the order of the positions; unused ones are H or OH. Square brackets hold non-standard residues; d marks the D form. Peptide text beside a SMILES is read from it. * marks the point of attachment. ξ: configuration not given here. X1 = N=C1NCC(C(O)C(N[*:1])C(=O)[*:2])N1C1OC(CO)C(O)C(O)C1O; ξEnduracididine(βξ-OH,4'ξ) = N=C1NCC(C(O)C(N)C(=O)O)N1; X2 = OCC1OC(OC2C(CO)OC(*)C(O)C2O)C(O)C(O)C1O; ξCha(3ξ-Me) = CC(C1CCCCC1)C(N)C(=O)O
readoutType: MIC Enterococcus faecalis (ATCC 29212)

INSERT INTO measurements (compound, datavalue) VALUES
  ('N=C1NCC(C(O)C2NC(=O)C(Cc3ccc(OC4OC(CO)C(OC5OC6COC7(OC6C(O)C5O)C5CC6CC(C5)CC7C6)C(O)C4O)cc3)NC(=O)C(CC3CCCCC3)NC(=O)CNC(=O)C(CO)NC(=O)C(C(O)C3CNC(=N)N3C3OC(CO)C(O)C(O)C3O)NC2=O)N1 (stereo not drawn) [Example 106]', '0.5 to 2 µg/mL'),
  ('CC(C1CCCCC1)C1NC(=O)CNC(=O)C(CO)NC(=O)C(C(O)C2CNC(=N)N2C2OC(CO)C(O)C(O)C2O)NC(=O)C(C(O)C2CNC(=N)N2)NC(=O)C(Cc2ccc(OC3OC(CO)C(OC4OC(CO)C(O)C(O)C4O)C(O)C3O)cc2)NC1=O (stereo not drawn) [Example 51] (cyclo(G[ξCha(3ξ-Me)]Y(X2)[ξEnduracididine(βξ-OH,4''ξ)][X1]S); configuration not given here)', '>64 µg/mL'),
  ('CC(c1ccccc1)C1NC(=O)CNC(=O)C(CO)NC(=O)C(C(O)C2CNC(=N)N2C2OC(CO)C(O)C(O)C2O)NC(=O)C(C(O)C2CNC(=N)N2)NC(=O)C(Cc2ccc(OC3OC(CO)C(OC4OC5COC6(OC5C(O)C4O)C4CC5CC(C4)CC6C5)C(O)C3O)cc2)NC1=O (stereo not drawn) [Example 105]', '1 to 2 µg/mL');

* * *

# System: Streptococcus sp.
# protocolDescription: In vitro antibacterial evaluation: minimum inhibitory concentration (MIC), broth dilution method
# Format: cell-based
# conditionParameters: strain ATCC 6301
readoutType: MIC Streptococcus pneumoniae (ATCC 6301)

INSERT INTO measurements (compound, assayedsystem, readouttype, datavalue) VALUES
  ('CC(c1ccccc1)C1NC(=O)CNC(=O)C(CO)NC(=O)C(C(O)C2CNC(=N)N2C2OC(CO)C(O)C(O)C2O)NC(=O)C(C(O)C2CNC(=N)N2)NC(=O)C(Cc2ccc(OC3OC(CO)C(OC4OC5COC(c6cccc(Cl)c6)OC5C(O)C4O)C(O)C3O)cc2)NC1=O (stereo not shown) [Example 138]', 'Streptococcus sp.', 'MIC Streptococcus pneumoniae (ATCC 6301)', '<0.06 µg/mL'),
  ('CC(c1ccccc1)C1NC(=O)CNC(=O)C(CO)NC(=O)C(C(O)C2CNC(=N)N2C2OC(CO)C(O)C(O)C2O)NC(=O)C(C(O)C2CNC(=N)N2)NC(=O)C(Cc2ccc(OC3OC(CO)C(OC4OC5COC(c6ccc(-c7ccsc7)cc6)OC5C(O)C4O)C(O)C3O)cc2)NC1=O (stereo not shown) [Example 164]', 'Streptococcus sp.', 'MIC Streptococcus pneumoniae (ATCC 6301)', '<0.06 µg/mL'),
  ('CC(c1ccccc1)C1NC(=O)CNC(=O)C(CO)NC(=O)C(C(O)C2CNC(=N)N2C2OC(CO)C(O)C(O)C2O)NC(=O)C(C(O)C2CNC(=N)N2)NC(=O)C(Cc2ccc(OC3OC(CO)C(OC4OC5COC(c6ccc(C(=O)c7ccccc7)cc6)OC5C(O)C4O)C(O)C3O)cc2)NC1=O (stereo not shown) [Example 173]', 'Streptococcus sp.', 'MIC Streptococcus pneumoniae (ATCC 6301)', '<0.12 µg/mL'),
  ('CCCc1ccc(C2OCC3OC(OC4C(CO)OC(Oc5ccc(CC6NC(=O)C(C(C)c7ccccc7)NC(=O)CNC(=O)C(CO)NC(=O)C(C(O)C7CNC(=N)N7C7OC(CO)C(O)C(O)C7O)NC(=O)C(C(O)C7CNC(=N)N7)NC6=O)cc5)C(O)C4O)C(O)C(O)C3O2)cc1 (stereo not shown) [Example 140]', 'Streptococcus sp.', 'MIC Streptococcus pneumoniae (ATCC 6301)', '<0.5 µg/mL');

* * *

# Test system: Staphylococcus sp.
# protocolDescription: In vitro antibacterial evaluation: minimum inhibitory concentration (MIC), broth dilution method
# Type: cell-based
# conditionParameters: broth dilution, 5×10^5 CFU/mL, 18 hours at 35° C.
readoutType: MIC Staphylococcus aureus (GC 3053) (µg/mL)

INSERT INTO measurements (compound, readouttype, resultmodifier, datavalue) VALUES
  ('CC(c1ccccc1)C1NC(=O)CNC(=O)C(CO)NC(=O)C(C(O)C2CNC(=N)N2C2OC(CO)C(O)C(O)C2O)NC(=O)C(C(O)C2CNC(=N)N2)NC(=O)C(Cc2ccc(OC3OC(CO)C(OC4OC5COC(c6ccc7c(c6)OCCO7)OC5C(O)C4O)C(O)C3O)cc2)NC1=O (stereo not drawn)', 'MIC Staphylococcus aureus (GC 3053)', '=', 4),
  ('CC(c1ccccc1)C1NC(=O)CNC(=O)C(CO)NC(=O)C(C(O)C2CNC(=N)N2C2OC(CO)C(O)C(O)C2O)NC(=O)C(C(O)C2CNC(=N)N2)NC(=O)C(Cc2ccc(OC3OC(CO)C(OC4OC5COC(c6ccc(-c7ccc(Cl)cc7)cc6)OC5C(O)C4O)C(O)C3O)cc2)NC1=O (stereo not drawn)', 'MIC Staphylococcus aureus (GC 3053)', '=', 4),
  ('COc1cc(C2OCC3OC(OC4C(CO)OC(Oc5ccc(CC6NC(=O)C(C(C)c7ccccc7)NC(=O)CNC(=O)C(CO)NC(=O)C(C(O)C7CNC(=N)N7C7OC(CO)C(O)C(O)C7O)NC(=O)C(C(O)C7CNC(=N)N7)NC6=O)cc5)C(O)C4O)C(O)C(O)C3O2)ccc1[N+](=O)[O-] (stereo not drawn)', 'MIC Staphylococcus aureus (GC 3053)', '=', 4),
  ('COc1cc(OC)cc(C2OCC3OC(OC4C(CO)OC(Oc5ccc(CC6NC(=O)C(C(C)c7ccccc7)NC(=O)CNC(=O)C(CO)NC(=O)C(C(O)C7CNC(=N)N7C7OC(CO)C(O)C(O)C7O)NC(=O)C(C(O)C7CNC(=N)N7)NC6=O)cc5)C(O)C4O)C(O)C(O)C3O2)c1 (stereo not drawn)', 'MIC Staphylococcus aureus (GC 3053)', '=', 8),
  ('COc1cc(OC)cc(C2OC3C(OC4C(CO)OC(Oc5ccc(CC6NC(=O)C(C(C)c7ccccc7)NC(=O)CNC(=O)C(CO)NC(=O)C(C(O)C7CNC(=N)N7C7OC(CO)C(O)C(O)C7O)NC(=O)C(C(O)C7CNC(=N)N7)NC6=O)cc5)C(O)C4O)OC(CO)C(O)C3O2)c1 (stereo not drawn) [Example 150a]', 'MIC Staphylococcus aureus (GC 3053)', '=', 32),
  ('CC(=O)n1cc(C2OCC3OC(OC4C(CO)OC(Oc5ccc(CC6NC(=O)C(C(C)c7ccccc7)NC(=O)CNC(=O)C(CO)NC(=O)C(C(O)C7CNC(=N)N7C7OC(CO)C(O)C(O)C7O)NC(=O)C(C(O)C7CNC(=N)N7)NC6=O)cc5)C(O)C4O)C(O)C(O)C3O2)c2ccccc21 (stereo not drawn)', 'MIC Staphylococcus aureus (GC 3053)', '=', 8),
  ('CSc1ccc(C2OCC3OC(OC4C(CO)OC(Oc5ccc(CC6NC(=O)C(C(C)c7ccccc7)NC(=O)CNC(=O)C(CO)NC(=O)C(C(O)C7CNC(=N)N7C7OC(CO)C(O)C(O)C7O)NC(=O)C(C(O)C7CNC(=N)N7)NC6=O)cc5)C(O)C4O)C(O)C(O)C3O2)cc1 (stereo not drawn)', 'MIC Staphylococcus aureus (GC 3053)', '=', 1),
  ('CCCc1ccc(C2OCC3OC(OC4C(CO)OC(Oc5ccc(CC6NC(=O)C(C(C)c7ccccc7)NC(=O)CNC(=O)C(CO)NC(=O)C(C(O)C7CNC(=N)N7C7OC(CO)C(O)C(O)C7O)NC(=O)C(C(O)C7CNC(=N)N7)NC6=O)cc5)C(O)C4O)C(O)C(O)C3O2)cc1 (stereo not drawn)', 'MIC Staphylococcus aureus (GC 3053)', '<', 0.5),
  ('CC(c1ccccc1)C1NC(=O)CNC(=O)C(CO)NC(=O)C(C(O)C2CNC(=N)N2C2OC(CO)C(O)C(O)C2O)NC(=O)C(C(O)C2CNC(=N)N2)NC(=O)C(Cc2ccc(OC3OC(CO)C(OC4OC5COC(c6ccc(C(=O)c7ccccc7)cc6)OC5C(O)C4O)C(O)C3O)cc2)NC1=O (stereo not drawn)', 'MIC Staphylococcus aureus (GC 3053)', '=', 1);
